// data source = patent US20250339409A1

test system: anti collagen antibodies induced arthritis (ACAIA); test: Anti collagen antibodies induced arthritis (ACAIA) in mice, intra-articular treatment: paw thickness, arthritis clinical score, body weight; details: BETi1 0.01 mg/kg IA (Group 5); Av;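 note: mouse arthritis induced by IV anti-collagen mAb on day 0 plus IP LPS on day 4, with body weight, caliper paw thickness and 0-4 paw score tracked against a day 0 baseline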
recorded-metric: Weight per day, Day 7 (g)

{"columns": ["given-smiles", "target-under-test", "quantitative-readout"],
 "data": [
  ["Cn1cc(-c2cccc(O)c2Oc2ccccc2)c2cc[nH]c2c1=O", "anti collagen antibodies induced arthritis (ACAIA)", 18.9]
]}

====

experiment: Solubility of BETi1 in water (HPLC) and in solvents (visual observation); type: physicochemical; settings: organic solvent or mixture, thermodynamic from solid; Anisole; 25° C.; visual observation; read-out: Approximate solubility

{"columns": ["given-smiles", "solubility"],
 "data": [
  ["Cn1cc(-c2cccc(O)c2Oc2ccccc2)c2cc[nH]c2c1=O", "< 5 mg/mL"]
]}
